Each recorded value in this set is attributed to PubChem BioAssay (NCI).

- Tested on: SN12C renal
- assay_protocol: NCI-60 one-dose screen, 48 h
- condition_set: 10 µM unless noted
- Description: Growth inhibition of the SN12C human tumor cell line is measured as a screen for anti-cancer activity. Cells are grown in 96 well plates and exposed to the test compound for 48 hours. Compounds are tested at a single concentration, which is 10^-5 M for most compounds. The reported endpoint is percent growth (GI% or GIPRCNT), where numbers from 0 - 100% represent growth inhibition, and numbers from -100% - 0 represent cell death. For example, a value of 40 represents 60% growth inhibition. […]
The panel holds about 83,000 compounds, 20% with a hit somewhere; the sample as a whole holds those more often. Active and inactive are the calls of the source. Rule for the calls: active = growth percent below 10; inactive = the rest.
Returns: one label drawn from t for active, f for inactive

Assay result, entry O=C(/C(=N/O)S(=O)(=O)c1ccccc1)c1cccs1 — outcome? f

Assay result, entry O=C(Oc1ccc[nH]c1=O)c1cccc(Cl)c1 — outcome? f

Assay result, entry Cc1ccccc1NC(=O)c1cc2ccccc2cc1O — outcome? f

Assay result, entry C=C1c2c(C)nn(-c3ccc(C#CCOC4OC(CO)C(O)C(O)C4O)cc3)c2N(C)C23C[C@H]1C1(C)c4c(C)nn(-c5ccc(C#CCOC6OC(CO)C(O)C(O)C6O)cc5)c4N(C)C(C)(C[C@H]12)C3 (stereo partly specified) — outcome? t

Assay result, entry Cc1nn(-c2ccccc2)c2nc(Cl)c(/C=C/C(=O)c3ccccc3)c(-c3ccccc3)c12 — outcome? f

Assay result, entry COc1cc2c(C#N)n3c(c2cc1OC)C(=O)C(c1ccccc1)Oc1ccccc1-3 (stereo unspecified) — outcome? f

Assay result, entry NC(N)=NC(N)=NCCCc1ccccc1 — outcome? f

Assay result, entry Fc1ccc([C@@H]2CCNC[C@H]2COc2ccc3c(c2)OCO3)cc1 — outcome? f

Assay result, entry O=C(Nc1ccc(C2=NCCCN2)cc1)Nc1ccc(C2=NCCCN2)cc1 — outcome? f

Assay result, entry CC/C(=C\c1ccc(N(C)C)cc1)c1nc2ccccc2c(=O)[nH]1 — outcome? f

Assay result, entry COc1ccc(-c2nc3sccn3c2-c2ccnc(S(C)(=O)=O)n2)cc1 — outcome? f

----------
- Tested on: HCT-15 colon
- assay_protocol: NCI-60 one-dose screen, 48 h (100 = growth as untreated, 0 = no growth, -100 = all killed)
- condition_set: 10 µM unless noted
- Method: Growth inhibition of the HCT-15 human tumor cell line is measured as a screen for anti-cancer activity. Cells are grown in 96 well plates and exposed to the test compound for 48 hours. Compounds are tested at a single concentration, which is 10^-5 M for most compounds. The reported endpoint is percent growth (GI% or GIPRCNT), where numbers from 0 - 100% represent growth inhibition, and numbers from -100% - 0 represent cell death. For example, a value of 40 represents 60% growth inhibition. […]
The panel holds about 83,000 compounds, 20% with a hit somewhere; the sample as a whole holds those more often.
Kindly supply the reported growth values for the records listed here.
Numeric answer only, unit % assumed.

// output growth; input COC1CC2CCC(C)C(O)(O2)C(=O)C(=O)N2CCCCC2C(=O)OC(C(C)CC2CCC(O)C(OC)C2)CC(=O)C(C)C=C(C)C(O)C(OC)C(=O)C(C)CC(C)/C=C/C=C/C=C1C (stereo unspecified) ; system HCT-15 colon 46.2

// output growth; input C[N+]1(CCc2ccccc2)CCC(CCC2CC[N+](C)(CCc3ccccc3)CC2)CC1 (stereo unspecified) ; system HCT-15 colon 104

// output growth; input COc1cc2c(C#N)n3c(c2cc1OC)C(=O)C(c1ccccc1)Oc1ccccc1-3 (stereo unspecified) ; system HCT-15 colon 31.5

// output growth; input O=[N+]([O-])c1ccc2c(c1)S(=O)c1cc([N+](=O)[O-])ccc1N2 ; system HCT-15 colon 99

// output growth; input Nc1ccc(C2=Nc3cccc4cccc(c34)S2)cc1 ; system HCT-15 colon 54.5

// output growth; input O=C(/C=C/c1cccnc1)NCCCCC1CCCN(C(=O)c2ccccc2)C1 (stereo unspecified) ; system HCT-15 colon 42

// output growth; input CCCCCCCCCCSc1ncnc2nc[nH]c12 ; system HCT-15 colon 82.4

// output growth; input COc1ccc(-c2cncn2-c2ccc(-c3nc4cc(OC)c(OC)c(OC)c4s3)cc2)cc1N ; system HCT-15 colon 42.1

// output growth; input Cc1c(C(N)=O)sc2ncn(Cc3ccccc3)c(=O)c12 ; system HCT-15 colon 115

// output growth; input Cc1nn(-c2ccc(Cl)cc2)c2nc3c(nc12)c(=O)oc1ccccc13 ; system HCT-15 colon 103

// output growth; input O=C(Nc1nc(-c2ccc(Cl)cc2)cs1)c1cc(O)c(O)c(O)c1 ; system HCT-15 colon 18.8

// output growth; input O=C(Cc1ccccn1)C(F)(F)C(F)(F)C(F)(F)F ; system HCT-15 colon 109

// output growth; input C=Cc1nn2c(CCC(=O)c3nc4ccccc4[nH]3)nnc2s1 ; system HCT-15 colon 101

// output growth; input COc1cc(C2NC(c3ccc(Cl)cc3)C(C)/C(=N/NC(N)=S)C2C)cc(OC)c1OC (stereo unspecified) ; system HCT-15 colon 81.9

// output growth; input [O-]/[N+](=C\C=C\c1ccccc1)c1ccccc1 ; system HCT-15 colon 104

// output growth; input O=C1NCC(Nc2ccc(Br)cc2Cl)C(=O)N1 (stereo unspecified) ; system HCT-15 colon 107

// output growth; input CCS(=O)(=O)OCCCl ; system HCT-15 colon 92.9

// output growth; input CCOc1cccc(C2CC(=O)Nc3cc4c(cc32)OCO4)c1 (stereo unspecified) ; system HCT-15 colon 77.3

// output growth; input COc1cc(C2C=C(c3ccc(C)cc3)Nc3nc(SC)[nH]c(=O)c32)ccc1Oc1ccnc2cc(Cl)ccc12 (stereo unspecified) ; system HCT-15 colon 64

// output growth; input O=[N+]([O-])c1ccc(N/N=C\c2ccccc2[N+](=O)[O-])nc1 ; system HCT-15 colon 100

// output growth; input ClC1=C(Cl)C(Cl)=C(Cl)C1=C/C=C/c1ccccc1 ; system HCT-15 colon -77

----------
- Test system: NCI-H460 lung
- assay_protocol: NCI-60 one-dose screen, 48 h
- condition_set: 10 µM unless noted
- Method: Growth inhibition of the NCI-H460 human Non-Small Cell Lung tumor cell line is measured as a screen for anti-cancer activity. Cells are grown in 96 well plates and exposed to the test compound for 48 hours. Compounds are tested at a single concentration, which is 10^-5 M for most compounds. The reported endpoint is percent growth (GI% or GIPRCNT), where numbers from 0 - 100% represent growth inhibition, and numbers from -100% - 0 represent cell death. […]
This is part of a sample that, as a whole, favours compounds with a hit. Of some 83,000 tested, about 20% had one in any assay. The source made the active and inactive calls. The calls were made as follows: active = growth percent below 10; inactive = the rest.
Returns: one label drawn from TRUE (active), FALSE (inactive)

Assay result, entry COc1ccc2c(c1)C(=O)/C(=C/c1ccc([N+](=O)[O-])s1)O2 — outcome? TRUE

Assay result, entry COc1ccc(C2CC(c3ccc(OC)c(OC)c3)=NN2C(=O)c2cc(OC)c(OC)c(OC)c2)c(OC)c1 (stereo unspecified) — outcome? FALSE

Assay result, entry COc1ncc(-c2ccc3nccc(C#CCN4CCN(S(C)(=O)=O)CC4)c3c2)cc1NS(=O)(=O)c1ccc(F)cc1F — outcome? TRUE

Assay result, entry C[C@]12C[C@H](O)[C@H]3[C@@H](CCC4=CC(=O)CC[C@@]43C)[C@@H]1CC[C@@H]2C(=O)CO — outcome? FALSE

Assay result, entry O=C(Nc1nc(-c2ccc(Cl)cc2)cs1)c1cc(O)c(O)c(O)c1 — outcome? FALSE

Assay result, entry Nc1nonc1-c1nc2ccccc2n1CC(=O)Nc1ccc2c(c1)COC2=O — outcome? FALSE

Assay result, entry O=C(Nc1ccc(Oc2ccc(NC(=O)Nc3ccc([N+](=O)[O-])cc3)cc2)cc1)Nc1ccc([N+](=O)[O-])cc1 — outcome? TRUE

Assay result, entry COc1cc(/C=C/C(=O)c2ccc(F)cc2)ccc1OCCCCCOc1cc2c(cc1OC)C(=O)N1CCCC1C=N2 (stereo unspecified) — outcome? TRUE

Assay result, entry O=C(CCc1nnc(Cn2ccnc2)o1)c1nc2ccccc2[nH]1 — outcome? FALSE

Assay result, entry O=C(C(=O)N1CCOCC1)c1ccc(OC2OC(CO)C(O)C(O)C2O)cc1 (stereo unspecified) — outcome? FALSE

Assay result, entry Oc1ccccc1C=Nc1ccccc1N=Cc1ccccc1O.[Cu+2] — outcome? FALSE

Assay result, entry COc1ccc(-c2c(N)noc2-c2cc(OC)c3c(c2)OCCO3)cc1 — outcome? TRUE

Assay result, entry CC(=O)c1nc2ccccc2n1CCn1cc(CC(N)C(=O)O)c2ccccc21 (stereo unspecified) — outcome? FALSE

Assay result, entry CC1=CC(=O)C(C(C)=Nc2ccccc2Cl)C(=O)O1 (stereo unspecified) — outcome? FALSE

Assay result, entry Nc1nc(SCC2(CCl)COC2)c2[nH]cnc2n1 — outcome? FALSE

Assay result, entry Nc1nc(Cl)c2[nH]cnc2n1 — outcome? FALSE

Assay result, entry Cn1cc(-c2csc(-c3c[nH]c4ncccc34)n2)c2cc(Br)cnc21 — outcome? TRUE

Assay result, entry COc1cc2c(c(OC)c1OC)-c1ccc(NN(C(=O)c3ccccc3)C(=O)c3ccccc3)c(=O)cc1[C@@H](NC(C)=O)CC2 (tested in a mixture with another compound) — outcome? FALSE

Assay result, entry O=C(O)c1ccc(NC(=O)c2cccc(Nc3ccnc(C(F)(F)F)c3)c2)cc1 — outcome? FALSE

Assay result, entry CC(C)[O-].CC(C)[O-].CN(CCN(C)Cc1cc(F)cc(F)c1[O-])Cc1cc(F)cc(F)c1[O-].[Ti+4] — outcome? TRUE

Assay result, entry Nc1ccc2c3c(cccc13)-c1ccccc1-2 — outcome? FALSE

Assay result, entry Nc1nc2ncc(CCNc3ccc(C(=O)NC(CCC(=O)O)C(=O)O)cc3)nc2c(=O)[nH]1 (stereo unspecified) — outcome? FALSE

Assay result, entry O=C(Nc1ccc(Cl)cc1)Nc1ccc(Oc2nncc3ccccc23)cc1 — outcome? FALSE

Assay result, entry COc1cc(C2CC(=O)Nc3c2cc(Br)c2ccccc32)cc(Br)c1OC (stereo unspecified) — outcome? FALSE

Assay result, entry COc1ccc2[nH]c(-c3ccccc3)cc2c1 — outcome? FALSE

Assay result, entry Cc1ccc(C=C2C(Cl)=C(Cl)C(Cl)=C2Cl)cc1 — outcome? TRUE

Assay result, entry COc1ccc(Cn2cc3c(c2-c2ccccc2)CCc2cncnc2-3)cc1 — outcome? FALSE

Assay result, entry N#Cc1c(N2CCOCC2)nc2sc3cc(Cl)ccc3n2c1=N — outcome? FALSE

Assay result, entry O=C1CN(CO)C(=O)CN1CO — outcome? FALSE

Assay result, entry O=C(Nc1cccc(-n2cc(-c3ccncc3)c(-c3ccc(O)c(Cl)c3)n2)c1)Nc1ccc(Cl)c(C(F)(F)F)c1 — outcome? TRUE

Assay result, entry O=C(/C(=C/c1ccc([N+](=O)[O-])cc1)c1ccccc1)c1ccccc1 — outcome? FALSE

Assay result, entry O=C1/C(=C/c2ccc([N+](=O)[O-])s2)Oc2ccc(Br)cc21 — outcome? TRUE

Assay result, entry CCCCCCCCCCSc1ncnc2nc[nH]c12 — outcome? FALSE

Assay result, entry O=[N+]([O-])c1cnc(Sc2ccncn2)c([N+](=O)[O-])c1 — outcome? FALSE

Assay result, entry ClC1=C(Cl)C(Cl)=C(Cl)C1=C/C=C/c1ccccc1 — outcome? TRUE

Assay result, entry COc1ccc(OC)c(NC(=O)c2cc3oc4ccccc4c3cc2O)c1 — outcome? FALSE

Assay result, entry Clc1nc(Cl)c2ncn(-c3ccccc3)c2n1 — outcome? FALSE

Assay result, entry COc1cccc(C2C(C#N)=C(N)Oc3cc(OC)ccc32)c1 (stereo unspecified) — outcome? TRUE

Assay result, entry Cc1ccc2c(c1)C(=O)/C(=C/c1ncc([N+](=O)[O-])n1C)O2 — outcome? TRUE

Assay result, entry Cc1c(C(N)=O)sc2nc(SCC(=O)Nc3ccc(Cl)cc3)n(-c3ccccc3)c(=O)c12 — outcome? FALSE

Assay result, entry COc1cc(C2C=C(c3ccc(C)cc3)Nc3nc(SC)[nH]c(=O)c32)ccc1Oc1ccnc2cc(Cl)ccc12 (stereo unspecified) — outcome? FALSE
